experiment: Compound 122 saliva concentrations in healthy human subjects after oral administration (HPLC-MS/MS); type: in vivo; settings: human, saliva, po, 30 mg, PM; Day 11; 30 mg q.d. oral; 2 hr; read-out: Mean saliva concentration, PM, Mean ± SD

molecule: COc1ccc(OC(F)(F)F)cc1CNC1CCCNC1c1ccccc1 (stereo not shown) [Compound 122]
concentration at 2 h / ng/mL: 6.96

* * *

Experiment: Compound 122 saliva concentrations in healthy human subjects after oral administration (HPLC-MS/MS)
Format: in vivo
Settings: human, saliva, po, 10 mg, PM; Day 6; 10 mg b.i.d. oral; 24 hr; read-out: Mean saliva concentration, PM, Mean ± SD
Experimental: Stock solutions of Compound 122-HCl salt and internal standard 2-difluoromethoxy-5-trifluoromethoxy-benzyl)-(2-phenyl-piperidin-3-yl)-amine] […] The analysis was performed on a Perkin Elmer SCIEX API 3000 triple quadrupole mass spectrometer operated in the positive ion mode. […] Analyte and IS responses were measured using multiple reaction monitoring (MRM). […] Product ions at m/z 160.0 were monitored for both drug and IS runs. […]

compound: COc1ccc(OC(F)(F)F)cc1CNC1CCCNC1c1ccccc1 (stereo not shown) [Compound 122]
unit label: ng/mL
concentration at 24 h: 5.51

* * *

assay: Compound 122 saliva concentrations in healthy human subjects after oral administration (HPLC-MS/MS); format: in vivo; conditions: human, saliva, po, 30 mg, EM + paroxetine; Day 11; 30 mg q.d. oral; 8 hr; read-out: Mean saliva concentration, EM + paroxetine, Mean ± SD

molecule: COc1ccc(OC(F)(F)F)cc1CNC1CCCNC1c1ccccc1 (stereo not shown)
concentration at 8 h: 6.3 ng/mL

* * *

test: Compound 122 saliva concentrations in healthy human subjects after oral administration (HPLC-MS/MS); format: in vivo; conditions: human, saliva, po, 10 mg, EM; Day 1; 10 mg q.d. oral; 4 hr; read-out: Mean saliva concentration, EM, Mean ± SD

compound: COc1ccc(OC(F)(F)F)cc1CNC1CCCNC1c1ccccc1 (stereo not shown)
concentration at 4 h / ng/mL: 0.524

* * *

assay: Compound 122 saliva concentrations in healthy human subjects after oral administration (HPLC-MS/MS); assay type: in vivo; settings: human, saliva, po, 30 mg, PM; Day 16; 30 mg b.i.d. oral; 0 hr; read-out: Mean saliva concentration, PM, Mean ± SD
measured quantity: concentration at 0 h (ng/mL)

compound: COc1ccc(OC(F)(F)F)cc1CNC1CCCNC1c1ccccc1 (stereo not shown)
measured quantity: concentration at 0 h
test value: 15

* * *

test: Compound 122 saliva concentrations in healthy human subjects after oral administration (HPLC-MS/MS); assay type: in vivo; conditions: human, saliva, po, 30 mg, EM + paroxetine; Day 16; 30 mg b.i.d. oral; 0 hr; read-out: Mean saliva concentration, EM + paroxetine, Mean ± SD

compound: COc1ccc(OC(F)(F)F)cc1CNC1CCCNC1c1ccccc1 (stereo not shown) [Compound 122]
unit label: ng/mL
concentration at 0 h: 6.16

* * *

test: Compound 122 saliva concentrations in healthy human subjects after oral administration (HPLC-MS/MS); assay type: in vivo; settings: human, saliva, po, 30 mg, PM; Day 11; 30 mg q.d. oral; 24 hr; read-out: Mean saliva concentration, PM, Mean ± SD

compound: COc1ccc(OC(F)(F)F)cc1CNC1CCCNC1c1ccccc1 (stereo not shown) [Compound 122]
concentration at 24 h: 11.8 ng/mL
